B1: TPR t1 (parent)
chain: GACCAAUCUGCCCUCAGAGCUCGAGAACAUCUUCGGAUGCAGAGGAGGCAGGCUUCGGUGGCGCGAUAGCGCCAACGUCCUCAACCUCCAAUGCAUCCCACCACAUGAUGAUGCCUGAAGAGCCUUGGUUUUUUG

# Variants of: B1
# protocol.summary: polymerase ribozyme fitness, log enrichment relative to wild type (log ratio); higher = more active; in vitro selection for triplet polymerase activity
Class T: polymerase ribozyme fitness (log ratio) at least -3. Class F: polymerase ribozyme fitness (log ratio) below -3.

{"sequence.record": "GACCAAUCUGCCAUCAGAGCUCGAGAACAUCUUCGGAUGCAGAGGAGGCAGGCUUCGCUGGCGCGAUAGCGCCAACGUCCUCAACCUCCAAUGCAUCCCACCACAUGAUGAUGCCUGAAGAGCCUUGGUUUUUUG", "classification": "T"}
{"sequence.record": "GACCAAUCUGCCCUCAGAGCUCGAGAACAUCCUCGGAUGCAGAGGAGGCAGGCUUCGGUGGCGCGAUAGCGCCAACGUGCCCAACCUCCAAUGCAUCCCACCACAUGAUGAUACCUGAAGAGCCUUGGUUUUUUG", "classification": "T"}
{"sequence.record": "GACCGCUCUGCCCUCAGAGCUCGAGAACAUCUUCGGAUGCAGGGGAGGCAGGCUUCGGUGGCGCGAUAGCGUCAACGUCCUCAACCUCCAAUGCAUCCCACCACAUGAUGAUGCCUGAAGAGCCUUGGUUUUUUG", "classification": "T"}

[ask] Given the entry `GACCAAUCUGCCCUCAGAGCUCGAGAACAUCUUCGGAUGCAGAGGAGGCAGGCUUUGGUGGCGCGAUAGCGCCAACGUCCUCAACCUCCAAUGCAGCCCAACACAUGAUGAUCCCUGAAGAGCCUUGGUUUUUUG` , answer whether its polymerase ribozyme fitness (log ratio) meets or surpasses -3.
[reply] F

[ask] Given the entry `GACCAAUUUGCCCUCAGAGCUCGAGAACAUCUUCGGAUGCAGAGGAGCCAGGCUUCGGUGGCGCGAUAGCGCCAACGUCCUCAACCUCCAAUGCAUCCCACCACAUGAUGAUGCCUGAAGAGCCUUGGUUUUUUG` , answer whether its polymerase ribozyme fitness (log ratio) meets or surpasses -3.
[reply] T

[ask] Given the entry `GACCAAUCUGCCCUCAGAGCUCGAGAACUUCUUCGGAUGUAGAGGAGGAAGGCUUCGGUGGCGCGAUGGCGCCAACGUCCUCAACCUCCAAUGCAUCCCACCACAAGAUGAUGCCUGAAGAGCCUUGGUUUUUUG` , answer whether its polymerase ribozyme fitness (log ratio) meets or surpasses -3.
[reply] F

[ask] Given the entry `GACCAAUCUGCCCUCAGAGCUCGAGAACAUCUUCGGAUGCAGAGGAGGCAGGCUUCGGUGGCGCGAUAGCGCCAACGUCCUCAACCUCCAAUGCAUCCCACCACAUGAUGGUGCCUGAAGAGCAUUGGUUUUUUG` , answer whether its polymerase ribozyme fitness (log ratio) meets or surpasses -3.
[reply] T

[ask] Given the entry `GACCAAUCUGCCCUCAGAGCUCGAGAACAUCUUCGGAUGCAGAGGAGGCAGGCUUCGGUGGCGCGAUAGCGCAAACGUCCUCAACCUCCAUUGCAUCCCACCACAUGAUGAUGCCUGAAGAGCCUUGGUUUUUUG` , answer whether its polymerase ribozyme fitness (log ratio) meets or surpasses -3.
[reply] T

[ask] Given the entry `GACCUAUCUGCCCUCAGAACUCGAGAACAUCUUCGGAUGCAGAGGAGGCAGGCUUCUGUGGCGCGAUAGCGCCAACGGCCUCAACCUCCAAUGCAUCCCACCACAUGAUGAUUCCUGAAGAGCCUUGGUUUUUUU` , answer whether its polymerase ribozyme fitness (log ratio) meets or surpasses -3.
[reply] F

[ask] Given the entry `GACCAAUCUGCCCUCAGAGCUCGAGAACAUCUUCGGAUGCAGAGGAGGCAGGCUUCGGUGGCGCGAUAGCGCCAACCUCCUCAACCUCCAAUGCAUCCCACCACAUGAUGAUGACUGAAGAGCCUUCGUUUUUUG` , answer whether its polymerase ribozyme fitness (log ratio) meets or surpasses -3.
[reply] T

[ask] Given the entry `GACCAAUUUGCCCUCAGACCUCGAGAACAUCUUCGGAUGCAGAGGAGGCAGGCUUAGGUGGCGCGAUAGCGCCAACGUCCUCAACCUCCAAUGCAUCCCACCACAUGAUGAUGCAUGAAGAGCCUUGGUUUUUUG` , answer whether its polymerase ribozyme fitness (log ratio) meets or surpasses -3.
[reply] T

[ask] Given the entry `GACCAAUGUGGCCUCAGAGCUCGAGAACAUCUUCGGAUGCCGAGGAGGAAGGCUUCGGUGGCGCGAUAGCGCCAACGUCCUCAACCUCCAAUGCAUCCCACCACAUGAUGAUGCCUGAAGAGCCUUGGUUUUUUG` , answer whether its polymerase ribozyme fitness (log ratio) meets or surpasses -3.
[reply] T

[ask] Given the entry `GACCAAUCUGCCCUCAGAGCGCGAGAACAUCUUCGGAUGCAGAGGAGGCAGGCUUCGGUGGCGCGAUAGCGCCAACGUCCUCAACCCCCAAUGCAUCCCACCACAUGAUGAUGUCUGAAGAGCCUUGGUUUUUUG` , answer whether its polymerase ribozyme fitness (log ratio) meets or surpasses -3.
[reply] T

[ask] Given the entry `GACCAAUCUGCCCUCAGAGCUCGAGAACAUCUUCGGAUGCAGAAGAGGCAGGCUUCGGUGGCGCGAUAGCGCCAACGUCCUCAACCUUCAAUGCAUCCCACCACAUGAUGAUGCCUGAAGAGCCUUGGUUUUUUG` , answer whether its polymerase ribozyme fitness (log ratio) meets or surpasses -3.
[reply] T

[ask] Given the entry `GACCAAUCUGCCCUCAGAGCUCGAGAACAUCUUCGGAUGCAGAGGAGGGAGGCUUCGGUGGCGCGAUAGCGCCAACGUCCUCAACCUCCAAUGCAUCCCACCACAUGAAGAAGCCUGAAGAGCCUUGGUUUUUUG` , answer whether its polymerase ribozyme fitness (log ratio) meets or surpasses -3.
[reply] F
